Entries annotated with measured IC50
- tested-on: human C5aR(CD88) (Homo sapiens, UniProt P21730)
- Construct: expressed in transfected cells; host or cells: rat basophilic leukemia cells (RBL)
- Sequence (P21730 whole entry): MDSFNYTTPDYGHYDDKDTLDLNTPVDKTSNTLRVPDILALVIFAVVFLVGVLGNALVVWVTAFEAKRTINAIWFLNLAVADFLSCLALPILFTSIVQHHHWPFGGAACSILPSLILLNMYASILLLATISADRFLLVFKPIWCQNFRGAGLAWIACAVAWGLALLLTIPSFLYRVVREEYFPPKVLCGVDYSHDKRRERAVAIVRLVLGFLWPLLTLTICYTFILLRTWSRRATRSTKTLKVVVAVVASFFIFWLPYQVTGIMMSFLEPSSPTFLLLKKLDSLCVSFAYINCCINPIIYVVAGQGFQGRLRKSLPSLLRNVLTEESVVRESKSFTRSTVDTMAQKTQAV
- measurement-protocol: Determination of the IC50 value in an enzyme release assay (functional assay, antagonistic activity)
- Format: cell-based
- experimental-context: antagonistic activity; IC50 group in enzyme release assay, RBL cells expressing human C5aR(CD88); read-out: activity (group)
Starred links: 1 amine or outer side, 2 acyl side, 3 side chain; linkers in the order of their positions; H or OH if unused. Positions of bridges follow the written chain, without caps; N, C: chain ends. Non-standard residues stand in square brackets, D forms with d. Residues, ends and D or L forms follow the SMILES beside them. *: point of attachment. Dip = N[C@H](C(=O)O)C(c1ccccc1)c1ccccc1; Phe(4-F) = N[C@@H](Cc1ccc(F)cc1)C(=O)O; 1Nal = N[C@@H](Cc1cccc2ccccc12)C(=O)O; 2Nal = N[C@@H](Cc1ccc2ccccc2c1)C(=O)O; Bta = N[C@@H](Cc1csc2ccccc12)C(=O)O; Hyp = O=C(O)[C@@H]1C[C@@H](O)CN1; d(hLeu) = CC(C)CC[C@@H](N)C(=O)O; dCha = N[C@H](CC1CCCCC1)C(=O)O; NHCH2CH(OH)CH2OH = OCC(O)CN*; NHPhenethyl = c1ccc(CCN*)cc1; Orn = NCCC[C@H](N)C(=O)O; CO = O=C([*:1])[*:2]

Below: 5 molecules and their reported IC50.
- molecule: "CC(=O)N[C@@H](Cc1ccccc1)C(=O)N[C@@H](CCCN)C(=O)N1CCC[C@H]1C(=O)N[C@H](CC1CCCCC1)C(=O)N[C@@H](Cc1c[nH]c2ccccc12)C(=O)NCCc1ccccc1 [Compound 72, Ac-Phe-Orn-Pro-cha-Trp-NH—CH2—CH2-Ph] (Ac-F[Orn]P[dCha]W-NHPhenethyl)"
  tested-on: "human C5aR(CD88) (Homo sapiens, UniProt P21730)"
  IC50: "200 to 2000 nM"
- molecule: "CC(=O)N[C@@H](Cc1ccccc1)C(=O)N[C@@H](CCCN)C(=O)N1CCC[C@H]1C(=O)N[C@H](CC1CCCCC1)C(=O)N[C@@H](Cc1cccc2ccccc12)C(=O)N[C@@H](Cc1ccccc1)C(N)=O [Compound 248, Ac-Phe-Orn-Pro-cha-1Ni-Phe-NH2] (Ac-F[Orn]P[dCha][1Nal]F-NH2)"
  tested-on: "human C5aR(CD88) (Homo sapiens, UniProt P21730)"
  IC50: "50 to 200 nM"
- molecule: "CC(=O)N[C@@H](Cc1ccccc1)C(=O)N[C@H]1CCCNC(=O)[C@H](Cc2ccccc2)NC(=O)[C@H](Cc2ccc(F)cc2)NC(=O)[C@@H](CCC(C)C)NC(=O)[C@@H]2C[C@@H](O)CN2C1=O [Compound 180, Ac-Phe-[Orn-Hyp-hle-Pff-Phe]] (Ac-F[Orn][Hyp][d(hLeu)][Phe(4-F)]F; lactam 2-C)"
  tested-on: "human C5aR(CD88) (Homo sapiens, UniProt P21730)"
  IC50: "50 to 200 nM"
- molecule: "O=C(NCC(O)CO)N[C@@H](Cc1ccccc1)C(=O)N[C@H]1CCCNC(=O)[C@H](Cc2ccccc2)NC(=O)[C@H](Cc2c[nH]c3ccccc23)NC(=O)[C@@H](CC2CCCCC2)NC(=O)[C@@H]2C[C@@H](O)CN2C1=O (stereo partly drawn) [Compound 336, Fhb-[Phe-Orn-Hyp-cha-Trp-Phe]] ({NHCH2CH(OH)CH2OH-CO}-F[Orn][Hyp][dCha]WF; lactam 2-C)"
  tested-on: "human C5aR(CD88) (Homo sapiens, UniProt P21730)"
  IC50: "50 to 200 nM"
- molecule: "CC(=O)N[C@@H](Cc1ccccc1)C(=O)N[C@@H](CCCN)C(=O)N1CCC[C@H]1C(=O)N[C@H](CCC(C)C)C(=O)N[C@@H](Cc1csc2ccccc12)C(=O)N[C@@H](Cc1ccc2ccccc2c1)C(N)=O [Compound 271, Ac-Phe-Orn-Pro-hle-Bta-2Ni—NH2] (Ac-F[Orn]P[d(hLeu)][Bta][2Nal]-NH2)"
  tested-on: "human C5aR(CD88) (Homo sapiens, UniProt P21730)"
  IC50: "50 to 200 nM"

Please turn your attention to the following entry.
Prompt: Param readout = IC50; param system = human C5aR(CD88) (Homo sapiens, UniProt P21730); param query = CC(=O)N[C@H](C(=O)N[C@@H](CCCN)C(=O)N1CCC[C@H]1C(=O)N[C@H](CC1CCCCC1)C(=O)N[C@@H](Cc1c[nH]c2ccccc12)C(=O)N[C@@H](Cc1ccccc1)C(N)=O)C(c1ccccc1)c1ccccc1 [Compound 78, Ac-Ebw-Orn-Pro-cha-Trp-Phe-NH2] (Ac-[Dip][Orn]P[dCha]WF-NH2) ; response: value
Completion: 50 to 200 nM

----------
- measurement-protocol: Solubility determination for selected C5aR-antagonists
- Format: physicochemical
- experimental-context: 20 mM HEPES pH 7.4, 24 h at RT
Positions of bridges follow the written chain, without caps; N, C: chain ends. Non-standard residues stand in square brackets, D forms with d. Residues, ends and D or L forms follow the SMILES beside them. dCha = N[C@H](CC1CCCCC1)C(=O)O; Nle = CCCC[C@H](N)C(=O)O; Orn = NCCC[C@H](N)C(=O)O
Here the recorded Solubility in 20 mM HEPES pH 7.4 (% of 200 μM) is given for each entry.

- compound: "CC(=O)N[C@@H](Cc1ccccc1)C(=O)N[C@H]1CCCNC(=O)[C@H](CCCNC(=N)N)NC(=O)[C@H](Cc2c[nH]c3ccccc23)NC(=O)[C@@H](CC2CCCCC2)NC(=O)[C@@H]2CCCN2C1=O [Compound 40, Ac-Phe-[Orn-Pro-cha-Trp-Arg], reference compound]"
  measured: "94 % of 200 μM"
- compound: "CCCC[C@@H]1NC(=O)[C@H](Cc2c[nH]c3ccccc23)NC(=O)[C@@H](CC2CCCCC2)NC(=O)[C@@H]2CCCN2C(=O)[C@@H](NC(=O)[C@H](Cc2ccccc2)NC(C)=O)CCCNC1=O [Compound 28, Ac-Phe-[Orn-Pro-cha-Trp-Nle]] (Ac-F[Orn]P[dCha]W[Nle]; lactam 2-C)"
  measured: "22 % of 200 μM"
- compound: "CC(=O)N[C@@H](Cc1ccccc1)C(=O)N[C@H]1CCCNC(=O)[C@H](Cc2ccccc2)NC(=O)[C@H](Cc2c[nH]c3ccccc23)NC(=O)[C@@H](CC2CCCCC2)NC(=O)[C@@H]2CCCN2C1=O [Compound 1, Ac-Phe-[Orn-Pro-cha-Trp-Phe]] (Ac-F[Orn]P[dCha]WF; lactam 2-C)"
  measured: "8 % of 200 μM"

Now for the compound whose Solubility in 20 mM HEPES pH 7.4 (% of 200 μM) we want.
Prompt: Form field: reported Solubility in 20 mM HEPES pH 7.4 (% of 200 μM) of CCCC[C@@H]1NC(=O)[C@H](Cc2c[nH]c3ccccc23)NC(=O)[C@@H](CC2CCCCC2)NC(=O)[C@@H]2CCCN2C(=O)[C@@H](NC(=O)[C@@H](N)Cc2ccccc2)CCCNC1=O [Compound 42, H-Phe-[Orn-Pro-cha-Trp-Nle]] (H-F[Orn]P[dCha]W[Nle]; lactam 2-C)
Completion: 45 % of 200 μM

----------
- tested-on: human C5aR(CD88) (Homo sapiens)
- Construct: expressed in transfected cells; host or cells: rat basophilic leukemia cells (RBL)
- measurement-protocol: Determination of the IC50 value in an enzyme release assay (functional assay, antagonistic activity)
- Type: cell-based
- experimental-context: antagonistic activity; IC50 group in enzyme release assay, RBL cells expressing human C5aR(CD88); read-out: activity (group)
Starred links: 1 amine or outer side, 2 acyl side, 3 side chain; linkers in the order of their positions; H or OH if unused. Positions of bridges follow the written chain, without caps; N, C: chain ends. Non-standard residues stand in square brackets, D forms with d. Residues, ends and D or L forms follow the SMILES beside them. ξ: configuration not given here. X4 = O=C([C@H](CNC1=NCCN1)N[*:1])[*:2]; Bta = N[C@@H](Cc1csc2ccccc12)C(=O)O; Hyp = O=C(O)[C@@H]1C[C@@H](O)CN1; ξNip = O=C(C1CCCN([*:1])C1)[*:2]; dCha = N[C@H](CC1CCCCC1)C(=O)O; Orn = NCCC[C@H](N)C(=O)O
recorded-metric: IC50

- compound: "O=C(N[C@@H](Cc1ccccc1)C(=O)N[C@H]1CCCNC(=O)[C@H](Cc2ccccc2)NC(=O)[C@H](Cc2c[nH]c3ccccc23)NC(=O)[C@@H](CC2CCCCC2)NC(=O)[C@@H]2C[C@@H](O)CN2C1=O)C1CCCNC1 (stereo partly drawn) [Compound 332, Fci-[Phe-Orn-Hyp-cha-Trp-Phe]] (ξNip-F[Orn][Hyp][dCha]WF; lactam 2-C)"
  IC50: "50 to 200 nM"

Prompt: For CC(=O)N[C@@H](Cc1ccccc1)C(=O)N[C@@H](CNC1=NCCN1)C(=O)N1CCC[C@H]1C(=O)N[C@H](CC1CCCCC1)C(=O)N[C@@H](Cc1csc2ccccc12)C(=O)N[C@@H](Cc1ccccc1)C(N)=O [Compound 222, Ac-Phe-Fco-Pro-cha-Bta-Phe-NH2] (Ac-F[X4]P[dCha][Bta]F-NH2) , what is its reported IC50?
Completion: 50 to 200 nM
